Biological target: human TLR7 (Homo sapiens, UniProt Q9NYK1)
Sequence (Q9NYK1 27-1049): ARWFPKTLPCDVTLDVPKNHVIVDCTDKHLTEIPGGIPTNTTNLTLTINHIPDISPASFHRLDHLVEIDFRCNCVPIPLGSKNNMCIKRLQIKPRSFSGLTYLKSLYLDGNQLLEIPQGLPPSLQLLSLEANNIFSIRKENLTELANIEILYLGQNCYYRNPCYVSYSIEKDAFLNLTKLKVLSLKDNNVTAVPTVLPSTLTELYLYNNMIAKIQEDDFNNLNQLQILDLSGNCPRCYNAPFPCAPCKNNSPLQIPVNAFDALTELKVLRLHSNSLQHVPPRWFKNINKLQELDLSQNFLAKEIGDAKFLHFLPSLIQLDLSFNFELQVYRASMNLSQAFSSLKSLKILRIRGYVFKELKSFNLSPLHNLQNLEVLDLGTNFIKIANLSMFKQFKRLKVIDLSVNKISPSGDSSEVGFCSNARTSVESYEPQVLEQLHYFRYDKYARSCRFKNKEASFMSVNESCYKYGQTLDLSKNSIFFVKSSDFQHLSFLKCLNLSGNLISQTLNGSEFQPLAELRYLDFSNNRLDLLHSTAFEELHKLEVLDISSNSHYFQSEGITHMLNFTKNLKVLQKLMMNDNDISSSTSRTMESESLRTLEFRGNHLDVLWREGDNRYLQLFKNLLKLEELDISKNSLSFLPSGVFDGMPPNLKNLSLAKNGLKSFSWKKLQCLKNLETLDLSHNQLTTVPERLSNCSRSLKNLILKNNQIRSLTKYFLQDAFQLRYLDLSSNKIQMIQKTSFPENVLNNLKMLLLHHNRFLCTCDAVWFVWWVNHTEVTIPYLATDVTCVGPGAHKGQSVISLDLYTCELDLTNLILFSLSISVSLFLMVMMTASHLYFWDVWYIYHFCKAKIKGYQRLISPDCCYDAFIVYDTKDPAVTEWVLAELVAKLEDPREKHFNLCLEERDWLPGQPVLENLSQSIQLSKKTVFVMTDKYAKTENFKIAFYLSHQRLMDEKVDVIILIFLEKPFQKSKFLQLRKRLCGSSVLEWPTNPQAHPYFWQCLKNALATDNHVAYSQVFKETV
Assay: TLR7 inhibition reporter assay (HEK-Blue cells, SEAP reporter, gardiquimod stimulation)
Conditions: HEK-Blue cells overexpressing human TLR7, gardiquimod 7.5 μM
pIC50: −log10 of the molar value.
REPORTED_METRIC: pIC50

COc1ccc(-c2[nH]c3ccc(C4CCN(Cc5cccc6cccnc56)CC4)cc3c2C)cc1OC | 5.94
CCCCCN1CCC(N2CCC(c3ccc4[nH]c(-c5ccc(OC)c(OC)c5)c(C)c4c3)CC2)CC1 | 7.07
CNCCN1CCC(c2ccc3[nH]c(-c4ccc(OC)c(OC)c4)c(CC(F)(F)F)c3c2)CC1 | 7.08

I = COc1ccc(-c2[nH]c3ccc(C4CCN(C(=O)NCCc5ccccc5)CC4)cc3c2CC(F)(F)F)cc1OC
II = CCN(CC)C(=O)CCN(C)CC(=O)N1CCC(c2ccc3[nH]c(-c4ccc(OC)c(OC)c4)c(C(C)C)c3c2)CC1
Smaller pIC50 value, I vs II ? Choose, then provide that item's label.
I
(I: 6.16, II: 6.80)
